Listing of entries alongside the reported Cmax.
method: Cmax in mouse at 25 mg/kg, po
Type: ADME, organism-based
Set-up: dose 25 mg/kg, route oral
conditions_used: in vivo
Return type: number; implicit unit ng/mL.

[
  {
    "smiles_notation": "c1cnc(-c2oc3cnccc3c2Nc2ccc3c(c2)Cc2c[nH]nc2-3)nc1",
    "unit_abbrev": "ng/mL",
    "Cmax": 2220
  }
]

Note to self: Cmax recorded for Clc1ccc2[nH]ncc2c1Nc1c(-c2ncccn2)oc2cnccc12 was 3730

###

method: AUC (0 to infinity) in mouse at 25 mg/kg, po
Format: ADME, organism-based
Set-up: time infinity, dose 25 mg/kg, route oral
conditions_used: plasma
Listing of entries alongside the reported AUC(0-inf).
Return type: number; implicit unit ng·h/mL.

[
  {
    "smiles_notation": "Clc1ccc2[nH]ncc2c1Nc1c(-c2ncccn2)oc2cnccc12",
    "AUC(0-inf) / ng·h/mL": 17000
  }
]

Shifting focus to the compound that follows.
Note to self: AUC(0-inf) recorded for c1cnc(-c2oc3cnccc3c2Nc2ccc3c(c2)Cc2c[nH]nc2-3)nc1 was 10400

###

tgt: Serine/threonine-protein kinase B-raf (Homo sapiens, UniProt P15056, V600E)
Sequence (P15056 2-766 V600E limits assumed): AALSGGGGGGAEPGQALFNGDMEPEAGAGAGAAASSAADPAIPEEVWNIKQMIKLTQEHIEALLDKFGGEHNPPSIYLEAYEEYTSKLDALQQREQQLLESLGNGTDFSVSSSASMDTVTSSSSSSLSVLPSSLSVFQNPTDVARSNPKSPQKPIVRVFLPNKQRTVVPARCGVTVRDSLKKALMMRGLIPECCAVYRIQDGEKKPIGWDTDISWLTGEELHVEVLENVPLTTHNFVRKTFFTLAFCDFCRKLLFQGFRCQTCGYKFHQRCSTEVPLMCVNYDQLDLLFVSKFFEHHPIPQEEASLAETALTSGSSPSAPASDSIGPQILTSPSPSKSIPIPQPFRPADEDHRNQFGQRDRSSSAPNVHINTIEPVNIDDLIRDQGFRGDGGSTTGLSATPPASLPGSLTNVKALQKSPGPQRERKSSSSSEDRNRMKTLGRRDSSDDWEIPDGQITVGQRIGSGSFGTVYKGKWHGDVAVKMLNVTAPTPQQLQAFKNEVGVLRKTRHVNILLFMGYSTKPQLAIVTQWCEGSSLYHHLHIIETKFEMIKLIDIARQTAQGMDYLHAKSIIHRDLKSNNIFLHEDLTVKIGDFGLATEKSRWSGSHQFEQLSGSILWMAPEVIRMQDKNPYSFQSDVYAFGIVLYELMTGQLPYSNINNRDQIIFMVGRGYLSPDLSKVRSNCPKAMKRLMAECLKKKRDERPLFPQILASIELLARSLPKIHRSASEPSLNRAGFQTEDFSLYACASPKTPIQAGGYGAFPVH
method: Inhibition of B-Raf V600E mutant
assay_readout: pIC50
Field pIC50 (float): negative decimal logarithm of the concentration in molar.

Here are 2 compounds together with their reported answers.
[
  {
    "smiles_notation": "CN(C)/C=C/NC(=O)c1oc2cnccc2c1Nc1ccc2c(O)cccc2c1",
    "assay_readout": "pIC50",
    "recorded_measurement": 8.30
  },
  {
    "smiles_notation": "Clc1cc(Nc2c(-c3ncccn3)oc3cnccc23)c2cn[nH]c2c1",
    "assay_readout": "pIC50",
    "recorded_measurement": 8.24
  }
]

Serine/threonine-protein kinase B-raf (Homo sapiens, UniProt P15056, V600E) data for c1cnc(-c2oc3cnccc3c2Nc2ccc3c(c2)Cc2c[nH]nc2-3)nc1 ; its pIC50: 8.40

Serine/threonine-protein kinase B-raf (Homo sapiens, UniProt P15056, V600E) data for O=C1CCc2cc(Nc3c(-c4ncccn4)oc4cnccc34)ccc21 ; its pIC50: 7.80

Serine/threonine-protein kinase B-raf (Homo sapiens, UniProt P15056, V600E) data for Oc1cccc2cc(Nc3c(-c4ncccn4)oc4cnccc34)ccc12 ; its pIC50: 9.00

Serine/threonine-protein kinase B-raf (Homo sapiens, UniProt P15056, V600E) data for CC(C)NC(=O)c1oc2cnccc2c1Nc1ccc(Cl)c2[nH]ncc12 ; its pIC50: 8.57

Serine/threonine-protein kinase B-raf (Homo sapiens, UniProt P15056, V600E) data for CCOC(=O)c1oc2cnccc2c1Nc1ccc2c(O)c(F)ccc2c1 ; its pIC50: 8.52

Serine/threonine-protein kinase B-raf (Homo sapiens, UniProt P15056, V600E) data for CC(C)NC(=O)c1oc2cnccc2c1Nc1ccc2c(c1)Cc1c[nH]nc1-2 ; its pIC50: 7.42

Serine/threonine-protein kinase B-raf (Homo sapiens, UniProt P15056, V600E) data for Cc1ccc(Nc2c(-c3ncccn3)oc3cnccc23)c2cn[nH]c12 ; its pIC50: 8.62

Serine/threonine-protein kinase B-raf (Homo sapiens, UniProt P15056, V600E) data for O/N=C1\NCc2cc(Nc3c(-c4ncccn4)oc4cnccc34)ccc21 ; its pIC50: 9.30

Serine/threonine-protein kinase B-raf (Homo sapiens, UniProt P15056, V600E) data for CC(C)NC(=O)c1oc2cnccc2c1Nc1ccc2c(c1)CN/C2=N\O ; its pIC50: 8.28

Serine/threonine-protein kinase B-raf (Homo sapiens, UniProt P15056, V600E) data for O=C(Nc1ncccn1)c1oc2cnccc2c1Nc1ccc(Cl)c(O)c1 ; its pIC50: 8.80

Serine/threonine-protein kinase B-raf (Homo sapiens, UniProt P15056, V600E) data for CCOC(=O)c1oc2cnccc2c1Nc1cnc2ccccc2c1 ; its pIC50: 7.52

Serine/threonine-protein kinase B-raf (Homo sapiens, UniProt P15056, V600E) data for Clc1ccc(Nc2c(-c3ncccn3)oc3cnccc23)c2cn[nH]c12 ; its pIC50: 8.38

Serine/threonine-protein kinase B-raf (Homo sapiens, UniProt P15056, V600E) data for Clc1ccc2[nH]ncc2c1Nc1c(-c2ncccn2)oc2cnccc12 ; its pIC50: 6.62

Serine/threonine-protein kinase B-raf (Homo sapiens, UniProt P15056, V600E) data for CCOC(=O)c1oc2cnccc2c1Nc1ccc2ccccc2c1 ; its pIC50: 6.75

Serine/threonine-protein kinase B-raf (Homo sapiens, UniProt P15056, V600E) data for CN1CCN(Cc2cnc(-c3oc4cnccc4c3Nc3ccc4c(O)cccc4c3)nc2)CC1 ; its pIC50: 8.70

###

tgt: Serine/threonine-protein kinase B-raf (Homo sapiens, UniProt P15056, V600E)
method: Inhibition of B-Raf V600E mutant
Listing of entries alongside the reported IC50.
Return type: number; implicit unit nM.

[
  {
    "smiles_notation": "Fc1ccc(Nc2c(-c3ncccn3)oc3cnccc23)c2cn[nH]c12",
    "IC50 (nM)": 2
  },
  {
    "smiles_notation": "OCCCc1n[nH]c2c(Cl)ccc(Nc3c(-c4ncccn4)oc4cnccc34)c12",
    "IC50 (nM)": 0.8
  },
  {
    "smiles_notation": "CCOC(=O)c1oc2cnccc2c1Nc1ccc2c(N)cccc2c1",
    "IC50 (nM)": 52
  },
  {
    "smiles_notation": "CC(C)NC(=O)c1oc2cnccc2c1Nc1ccc(Cl)c(O)c1",
    "IC50 (nM)": 4
  }
]

Shifting focus to the compound that follows.
Note to self: IC50 recorded for NCCCc1n[nH]c2c(Cl)ccc(Nc3c(-c4ncccn4)oc4cnccc34)c12 was 4.3

###

Listing of entries alongside the reported Papp.
method: Permeability across human Caco2 cells
Format: ADME, cell-based
conditions_used: Caco-2, read-out: permeability

Here are 2 molecules together with their reported answers.
[
  {
    "smiles_notation": "Clc1ccc(Nc2c(-c3ncccn3)oc3cnccc23)c2cn[nH]c12",
    "recorded_measurement": "< 2 ×10⁻⁶ cm/s"
  },
  {
    "smiles_notation": "c1cnc(-c2oc3cnccc3c2Nc2ccc3c(c2)Cc2c[nH]nc2-3)nc1",
    "recorded_measurement": "> 8 ×10⁻⁶ cm/s"
  }
]

Shifting focus to the molecule that follows.
Note to self: Papp recorded for Clc1ccc2[nH]ncc2c1Nc1c(-c2ncccn2)oc2cnccc12 was 2 ×10⁻⁶ cm/s

###

tgt: Serine/threonine-protein kinase B-raf (Homo sapiens, UniProt P15056, V600E)
method: Inhibition of B-Raf V600E mutant
assay_readout: pIC50
Field pIC50 (float): negative decimal logarithm of the concentration in molar.

Here are 6 molecules together with their reported answers.
[
  {
    "smiles_notation": "CC(C)NC(=O)c1oc2cnccc2c1Nc1ccc2c(O)cccc2c1",
    "recorded_measurement": 8.85
  },
  {
    "smiles_notation": "c1cnc(-c2oc3cnccc3c2Nc2cccc3[nH]ncc23)nc1",
    "recorded_measurement": 7.85
  },
  {
    "smiles_notation": "CCOC(=O)c1oc2cnccc2c1Nc1ccc(Cl)c(O)c1",
    "recorded_measurement": 8.64
  },
  {
    "smiles_notation": "CCc1n[nH]c2c(Cl)ccc(Nc3c(-c4ncccn4)oc4cnccc34)c12",
    "recorded_measurement": 9.10
  },
  {
    "smiles_notation": "Cc1cc(Nc2c(-c3ncccn3)oc3cnccc23)c2cn[nH]c2c1Cl",
    "recorded_measurement": 9.52
  },
  {
    "smiles_notation": "CCOC(=O)c1oc2cnccc2c1Nc1ccc2c(c1)CCC2=O",
    "recorded_measurement": 7.03
  }
]

Serine/threonine-protein kinase B-raf (Homo sapiens, UniProt P15056, V600E) data for CN/C=C/NC(=O)c1oc2cnccc2c1Nc1ccc2c(c1)Cc1c[nH]nc1-2 ; its pIC50: 7.37

Serine/threonine-protein kinase B-raf (Homo sapiens, UniProt P15056, V600E) data for CCOC(=O)c1oc2cnccc2c1Nc1ccc2c(O)cccc2c1 ; its pIC50: 8.96
